The values you see were collected from ChEMBL document CHEMBL5523727.

assay: Metabolic stability in rat liver microsomes assessed as intrinsic clearance at 1 uM measured upto 60 mins in presence of NADPH by UPLC/MS-MS analysis; assay type: ADME, Microsome; details: read-out: CLH
Cut-off 3 µL/min/mg on microsomal CLint at 1 µM: below means 1, at or above means -1.

COMPOUND: CC(C)(O)c1cc2nn([C@H]3CC[C@H](CN4CCC(O[C@H]5C[C@H](Nc6cccc7c6C(=O)N(C6CCC(=O)NC6=O)C7=O)C5)CC4)CC3)cc2cc1NC(=O)c1cccc(C(F)(F)F)n1 (stereo partly specified)
CLASS ASSIGNMENT: -1
--
COMPOUND: CN(CCCN(C)c1cccc2c1C(=O)N(C1CCC(=O)NC1=O)C2=O)C[C@H]1CC[C@H](n2cc3cc(NC(=O)c4cccc(C(F)(F)F)n4)c(C(C)(C)O)cc3n2)CC1 (stereo partly specified)
CLASS ASSIGNMENT: -1
--
COMPOUND: CN(C[C@H]1CC[C@H](n2cc3cc(NC(=O)c4cccc(C(F)(F)F)n4)c(C(C)(C)O)cc3n2)CC1)[C@H]1CC[C@@]2(CC1)C[C@H](Nc1cccc3c1C(=O)N(C1CCC(=O)NC1=O)C3=O)C2 (stereo partly specified)
CLASS ASSIGNMENT: 1

API: query returns whether the compound falls strictly under 3 µL/min/mg in microsomal CLint at 1 µM. Query: COc1cc2nc([C@H]3CC[C@H](CN4CC5(CC(CCNc6cccc7c6C(=O)N(C6CCC(=O)NC6=O)C7=O)C5)C4)CC3)sc2cc1NC(=O)c1cccc(C(F)(F)F)n1 (stereo partly specified)
1

API: query returns whether the compound falls strictly under 3 µL/min/mg in microsomal CLint at 1 µM. Query: O=C1CCC(N2C(=O)c3cccc(NCC4CC5(CCN(C[C@H]6CC[C@H](n7cc8cc(NC(=O)c9cccc(C(F)(F)F)n9)c(C(F)F)cc8n7)CC6)CC5)C4)c3C2=O)C(=O)N1 (stereo partly specified)
1

API: query returns whether the compound falls strictly under 3 µL/min/mg in microsomal CLint at 1 µM. Query: COc1cc2nc([C@H]3CC[C@H](CN4CC5(CC(CCNc6cccc7c6C(=O)N(C6CCC(=O)NC6=O)C7=O)C5)C4)CC3)n(C)c2cc1NC(=O)c1cccc(C(F)(F)F)n1 (stereo partly specified)
1

API: query returns whether the compound falls strictly under 3 µL/min/mg in microsomal CLint at 1 µM. Query: CN(CCCO[C@H]1C[C@@H](Nc2cccc3c2C(=O)N(C2CCC(=O)NC2=O)C3=O)C1)C[C@H]1CC[C@H](n2cc3cc(NC(=O)c4cccc(C(F)(F)F)n4)c(C(C)(C)O)cc3n2)CC1 (stereo partly specified)
-1

API: query returns whether the compound falls strictly under 3 µL/min/mg in microsomal CLint at 1 µM. Query: CC(C)(O)c1cc2nn([C@H]3CC[C@H](CN4CCC5(CC4)CC(CNc4cccc6c4C(=O)N(C4CCC(=O)NC4=O)C6=O)C5)CC3)cc2cc1NC(=O)c1cccc(C(F)(F)F)n1 (stereo partly specified)
1

API: query returns whether the compound falls strictly under 3 µL/min/mg in microsomal CLint at 1 µM. Query: CN(CCCOCCCNc1cccc2c1C(=O)N(C1CCC(=O)NC1=O)C2=O)C[C@H]1CC[C@H](n2cc3cc(NC(=O)c4cccc(C(F)(F)F)n4)c(C(C)(C)O)cc3n2)CC1 (stereo partly specified)
-1

API: query returns whether the compound falls strictly under 3 µL/min/mg in microsomal CLint at 1 µM. Query: CN(CCCOc1cccc2c1CN(C1CCC(=O)NC1=O)C2=O)C[C@H]1CC[C@H](n2cc3cc(NC(=O)c4cccc(C(F)(F)F)n4)c(C(C)(C)O)cc3n2)CC1 (stereo partly specified)
-1

API: query returns whether the compound falls strictly under 3 µL/min/mg in microsomal CLint at 1 µM. Query: CC(C)(O)c1cc2nn([C@H]3CC[C@H](CN4CCC5(CC4)CC(Nc4cccc6c4C(=O)N(C4CCC(=O)NC4=O)C6=O)C5)CC3)cc2cc1NC(=O)c1cccc(C(F)(F)F)n1 (stereo partly specified)
1
